Target: UniProt:Q5S007
Sequence (Q5S007 970-2527 limits assumed): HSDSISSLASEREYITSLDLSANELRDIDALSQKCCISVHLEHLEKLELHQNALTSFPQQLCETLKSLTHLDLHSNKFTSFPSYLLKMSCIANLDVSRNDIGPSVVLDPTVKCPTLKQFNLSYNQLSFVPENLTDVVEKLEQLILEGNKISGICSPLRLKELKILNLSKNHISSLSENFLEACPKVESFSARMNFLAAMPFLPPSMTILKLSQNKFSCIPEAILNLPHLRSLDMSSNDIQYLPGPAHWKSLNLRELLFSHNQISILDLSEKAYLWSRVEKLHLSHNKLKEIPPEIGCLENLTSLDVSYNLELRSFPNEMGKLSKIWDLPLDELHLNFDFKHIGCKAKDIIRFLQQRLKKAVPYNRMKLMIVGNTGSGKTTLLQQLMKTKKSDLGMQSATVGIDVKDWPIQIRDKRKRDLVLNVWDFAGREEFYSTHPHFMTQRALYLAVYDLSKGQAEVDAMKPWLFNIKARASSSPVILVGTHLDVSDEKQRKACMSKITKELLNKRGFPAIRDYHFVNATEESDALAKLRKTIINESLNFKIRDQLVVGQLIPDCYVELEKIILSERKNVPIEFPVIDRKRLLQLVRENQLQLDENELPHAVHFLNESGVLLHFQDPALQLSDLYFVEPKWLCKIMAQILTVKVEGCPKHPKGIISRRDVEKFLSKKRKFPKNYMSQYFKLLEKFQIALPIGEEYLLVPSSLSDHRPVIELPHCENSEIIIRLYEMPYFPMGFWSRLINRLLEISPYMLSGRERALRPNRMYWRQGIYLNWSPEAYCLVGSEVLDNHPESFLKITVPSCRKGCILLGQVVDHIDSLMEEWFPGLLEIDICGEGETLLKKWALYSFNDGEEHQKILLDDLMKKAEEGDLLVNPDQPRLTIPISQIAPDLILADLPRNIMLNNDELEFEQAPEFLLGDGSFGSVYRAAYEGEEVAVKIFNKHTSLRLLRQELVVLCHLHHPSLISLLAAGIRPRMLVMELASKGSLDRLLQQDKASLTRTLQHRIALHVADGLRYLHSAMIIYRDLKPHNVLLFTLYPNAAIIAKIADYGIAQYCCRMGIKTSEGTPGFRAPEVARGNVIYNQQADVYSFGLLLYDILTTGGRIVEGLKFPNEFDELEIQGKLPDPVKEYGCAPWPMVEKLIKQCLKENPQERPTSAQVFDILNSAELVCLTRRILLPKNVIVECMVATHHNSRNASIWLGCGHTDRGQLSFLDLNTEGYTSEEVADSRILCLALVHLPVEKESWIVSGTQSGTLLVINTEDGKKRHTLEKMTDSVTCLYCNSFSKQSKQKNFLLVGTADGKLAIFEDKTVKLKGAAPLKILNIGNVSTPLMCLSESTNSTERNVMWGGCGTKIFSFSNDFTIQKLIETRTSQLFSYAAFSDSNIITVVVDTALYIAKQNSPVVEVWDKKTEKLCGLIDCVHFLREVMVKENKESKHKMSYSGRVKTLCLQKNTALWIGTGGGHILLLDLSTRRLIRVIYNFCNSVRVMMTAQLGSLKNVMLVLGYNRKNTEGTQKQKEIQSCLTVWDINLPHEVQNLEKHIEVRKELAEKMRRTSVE
Assay: LRRK2-LRRK2 G2019S-Assay (LanthaScreen Eu Kinase Binding Assay)
Details: 5 nM LRRK2 or their mutants, 10 nM tracer 236, RT 1 h; read-out: LRRK2 Activities: IC50
ASSAY READOUT: IC50

| COMPOUND STRUCTURE | TEST VALUE |
| --- | --- |
| CN1CCC(c2nc(Nc3ccc4[nH]ncc4c3)c3[nH]ncc3n2)CC1 | 100 to 1000 nM |
| CN1CCC(c2nc(Nc3ccc4cn[nH]c4c3)c3[nH]ncc3n2)CC1 | 100 to 1000 nM |
| CN1CCN(c2ccc(Nc3nc(-c4cccc(-c5cccnc5)c4)nc4cn[nH]c34)cc2)CC1 | 100 to 1000 nM |
| COc1cccc(-c2nc(Nc3ccc(N(C)C)cc3)c3[nH]ncc3n2)c1 | 100 to 1000 nM |
| COc1ccc(-c2nc(Nc3ccc(N4CCOCC4)cc3)c3[nH]ncc3n2)cc1 | 10 to 100 nM |
| COc1ccc(-c2nc(Nc3ccc4c(c3)NCCO4)c3[nH]ncc3n2)cc1 | 10 to 100 nM |
| COc1cccc(-c2nc(Nc3ccc4cn[nH]c4c3)c3[nH]ncc3n2)c1 | 100 to 1000 nM |
| COc1ccc(Nc2nc(-c3ccsc3)nc3cn[nH]c23)cc1OC | 10 to 100 nM |
| COc1ccc(Nc2nc(-c3cccc(C(=O)O)c3)nc3cn[nH]c23)cc1OC | 100 to 1000 nM |
| CN1CCN(c2ccc(Nc3nc(-c4ccncc4)nc4cn[nH]c34)cc2)CC1 | 100 to 1000 nM |

// switching to the query compound
Requested read-out: IC50. Entry: COc1ccc(Nc2nc(-c3ccc(N4CCCC4)nc3)nc3cn[nH]c23)cc1OC
100 to 1000 nM

The origin of these recorded values is patent US9802937B2.
